Where do the numbers come from? From the Human Domainome abundance scans (Beltran et al. 2025).

B1: POU domain, class 4, transcription factor 2, residues 256 to 327; numbered along this chain, Q12837 (parent)
chain: RDLEAFAERFKQRRIKLGVTQADVGSALANLKIPGVGSLSQSTICRFESLTLSHNNMIALKPILQAWLEEAE

# Variants of: B1
# Assay Protocol: abundance fitness (aPCA) (normalised: wild type 0, dead -1); higher = more abundant; growth selection in yeast, the domain comes from the species named
# Stated Conditions: Homo sapiens
# maps each entry to its abundance fitness

Q) Recorded abundance fitness of "RDLEAFAERFKQRRIKLGVTQADVGSALANLKIPGVGSLSQSTICRFESLTLDHNNMIALKPILQAWLEEAE" , please.
A) 0.043

Q) Recorded abundance fitness of "RDLEAFAERFKQRRIKLGVTQADVGSALANLKIPGVGSLSQSTICRFESLTLSHNNMIALKPILQAWLEAAE" , please.
A) -0.058

Q) Recorded abundance fitness of "RDLEAFAERFKQRRIKLGVTQAWVGSALANLKIPGVGSLSQSTICRFESLTLSHNNMIALKPILQAWLEEAE" , please.
A) -0.495

Q) Recorded abundance fitness of "RDLEAFAERFKQRRIKLGVTQADVGSALANLKIPGVGSLSQSTICRFESLTLSHNNMIAPKPILQAWLEEAE" , please.
A) -0.971

Q) Recorded abundance fitness of "RDLEAFAERFKQRRIKLGVTQADVGSALANLKIPGVGSLSQSTICRFESLTLSHNNMIAHKPILQAWLEEAE" , please.
A) -0.944

Q) Recorded abundance fitness of "RDLEAFAERFKQRRIKLGVTQADVGSALANLKIPGVGSLSQSTIYRFESLTLSHNNMIALKPILQAWLEEAE" , please.
A) 0.26

Q) Recorded abundance fitness of "RDLEAFAERFKQRRIKLGVTQADVGSALANLKIPGVGSLSQSTICRFESLWLSHNNMIALKPILQAWLEEAE" , please.
A) -0.78

Q) Recorded abundance fitness of "RDLEAFAERFKQRRIKLGVTQADVGSALANLKIPGVGSLSQSTICRFESLTLSHNNMIALKRILQAWLEEAE" , please.
A) -0.771

Q) Recorded abundance fitness of "RDLEAFAERFKQRRIKLGVTQADVGSALANLKIPGVGSLSQSTIKRFESLTLSHNNMIALKPILQAWLEEAE" , please.
A) -0.098

Q) Recorded abundance fitness of "RDLEAFAERFKQRRIKLGVTQADVGSALANLKIPGVGSLSQSTICRFESLTLSHNNMIALKPILQAWLKEAE" , please.
A) -0.458

Q) Recorded abundance fitness of "RDLEAFAERFKQRRIKLGVTQADVGSALANLKIPGVGSLSQSTICRFESLTLSHNAMIALKPILQAWLEEAE" , please.
A) -0.041
